Target: MAP3K9 (human)
Assay: KINOMEscan competition binding
Settings: compound 10.0 µM
ASSAY ENDPOINT: kinase still bound, per cent of control (%)
Give bare numbers, in %.

> print(dat)
                               smiles.entry                           assay.endpoint  reported
1  COc1ccc(-c2ccc3c(N4CCOCC4)nc(N4C[C@@H](C)O[C@@H](C)C4)nc3n2)cc1CO  kinase still bound, per cent of control        88
2  CCC(=O)N1CCN(c2ccc(-n3c(=O)ccc4cnc5ccc(-c6cnc7ccccc7c6)cc5c43)cc2C(F)(F)F)CC1  kinase still bound, per cent of control        84
3  CC(C)n1nc(-c2cc3cc(O)ccc3[nH]2)c2c(N)ncnc21  kinase still bound, per cent of control        32

Query compound follows.
-- ask Quick one: kinase still bound, per cent of control of `COC(=O)Nc1ccc(-c2nc(N3CCOCC3)c3cnn(C4CCN(C(=O)OC)CC4)c3n2)cc1` ?
-- reply 100

---

Target: TYK2 JH1 catalytic (human)
Assay: KINOMEscan competition binding
Conditions: compound 10.0 µM
Would you mind telling me the reported kinase still bound, per cent of control of each entry?
Answers are plain numbers, in %.

Check out these entries, answers already filled in.
> print(dat)
                               smiles.entry                           assay.endpoint  unit.info  reported
1  CCC(=O)N1CCN(c2ccc(-n3c(=O)ccc4cnc5ccc(-c6cnc7ccccc7c6)cc5c43)cc2C(F)(F)F)CC1  kinase still bound, per cent of control          %        70
2  CC(C)n1nc(-c2cc3cc(O)ccc3[nH]2)c2c(N)ncnc21  kinase still bound, per cent of control          %       8.2
3  COc1ccc(-c2ccc3c(N4CCOCC4)nc(N4C[C@@H](C)O[C@@H](C)C4)nc3n2)cc1CO  kinase still bound, per cent of control          %       100

Query compound follows.
-- ask Query the reported kinase still bound, per cent of control for TYK2 JH1 catalytic (human); item: `COC(=O)Nc1ccc(-c2nc(N3CCOCC3)c3cnn(C4CCN(C(=O)OC)CC4)c3n2)cc1`
-- reply 100

---

Target: ZAP70 (human) (UniProt P43403)
Sequence (P43403 whole entry, looked up): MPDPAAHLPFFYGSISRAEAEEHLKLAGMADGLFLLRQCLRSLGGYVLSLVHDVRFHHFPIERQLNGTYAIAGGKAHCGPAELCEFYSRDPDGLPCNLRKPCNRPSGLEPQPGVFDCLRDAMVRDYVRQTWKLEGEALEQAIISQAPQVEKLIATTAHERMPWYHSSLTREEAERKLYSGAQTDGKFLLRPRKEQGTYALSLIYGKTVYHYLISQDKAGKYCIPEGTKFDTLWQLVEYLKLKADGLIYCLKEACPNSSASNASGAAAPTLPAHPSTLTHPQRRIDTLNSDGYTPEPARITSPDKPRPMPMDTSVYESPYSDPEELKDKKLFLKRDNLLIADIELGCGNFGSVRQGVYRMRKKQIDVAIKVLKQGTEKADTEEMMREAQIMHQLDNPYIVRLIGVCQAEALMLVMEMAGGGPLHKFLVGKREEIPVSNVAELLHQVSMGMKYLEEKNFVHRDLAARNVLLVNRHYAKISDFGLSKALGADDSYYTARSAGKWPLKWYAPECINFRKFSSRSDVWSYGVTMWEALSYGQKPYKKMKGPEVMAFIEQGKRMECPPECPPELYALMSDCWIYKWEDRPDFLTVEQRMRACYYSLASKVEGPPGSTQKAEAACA
Assay: KINOMEscan competition binding
Conditions: compound 10.0 µM
ASSAY ENDPOINT: kinase still bound, per cent of control (%)
One number for each entry, in %.

Check out these entries, answers already filled in.
> print(dat)
                               smiles.entry  reported
1  COc1ccc(-c2ccc3c(N4CCOCC4)nc(N4C[C@@H](C)O[C@@H](C)C4)nc3n2)cc1CO        83
2  CC(C)n1nc(-c2cc3cc(O)ccc3[nH]2)c2c(N)ncnc21        99
3  CCC(=O)N1CCN(c2ccc(-n3c(=O)ccc4cnc5ccc(-c6cnc7ccccc7c6)cc5c43)cc2C(F)(F)F)CC1       100

Query compound follows.
-- ask Quick one: kinase still bound, per cent of control of `COC(=O)Nc1ccc(-c2nc(N3CCOCC3)c3cnn(C4CCN(C(=O)OC)CC4)c3n2)cc1` ?
-- reply 98

---

Target: DYRK2 (human) (UniProt Q92630)
Sequence (Q92630 whole entry, looked up): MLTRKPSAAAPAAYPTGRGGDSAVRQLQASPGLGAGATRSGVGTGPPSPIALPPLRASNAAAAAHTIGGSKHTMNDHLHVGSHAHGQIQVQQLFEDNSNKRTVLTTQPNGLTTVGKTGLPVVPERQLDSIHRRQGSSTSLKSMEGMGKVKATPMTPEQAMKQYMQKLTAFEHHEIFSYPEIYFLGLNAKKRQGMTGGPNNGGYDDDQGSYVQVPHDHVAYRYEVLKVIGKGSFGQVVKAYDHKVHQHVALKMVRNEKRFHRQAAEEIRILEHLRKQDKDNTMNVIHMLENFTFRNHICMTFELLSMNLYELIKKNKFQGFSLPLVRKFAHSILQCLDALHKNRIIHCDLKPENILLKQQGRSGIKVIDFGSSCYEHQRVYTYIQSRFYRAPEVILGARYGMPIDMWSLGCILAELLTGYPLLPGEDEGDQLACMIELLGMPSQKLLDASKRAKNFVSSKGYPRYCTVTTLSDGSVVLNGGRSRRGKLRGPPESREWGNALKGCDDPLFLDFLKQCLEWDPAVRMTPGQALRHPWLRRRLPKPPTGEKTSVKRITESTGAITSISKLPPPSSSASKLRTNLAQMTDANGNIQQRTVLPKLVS
Settings: compound 1.0 µM
Would you mind telling me the reported per cent of control of each entry?
Give bare numbers, in %.

Check out these entries, answers already filled in.
> print(dat)
                               smiles.entry  unit.info  reported
1  COC(=O)Nc1ccc(-c2nc(N3CCOCC3)c3cnn(C4CCN(C(=O)OC)CC4)c3n2)cc1          %        92
2  CC(C)n1nc(-c2cc3cc(O)ccc3[nH]2)c2c(N)ncnc21          %        17

Respectfully, I request per cent of control for each entry included below.
1. COc1ccc(-c2ccc3c(N4CCOCC4)nc(N4C[C@@H](C)O[C@@H](C)C4)nc3n2)cc1CO
2. CCC(=O)N1CCN(c2ccc(-n3c(=O)ccc4cnc5ccc(-c6cnc7ccccc7c6)cc5c43)cc2C(F)(F)F)CC1

-- reply
1: 92; 2: 99

---

Target: YES1 (human) (UniProt P07947)
Sequence (P07947 whole entry, looked up): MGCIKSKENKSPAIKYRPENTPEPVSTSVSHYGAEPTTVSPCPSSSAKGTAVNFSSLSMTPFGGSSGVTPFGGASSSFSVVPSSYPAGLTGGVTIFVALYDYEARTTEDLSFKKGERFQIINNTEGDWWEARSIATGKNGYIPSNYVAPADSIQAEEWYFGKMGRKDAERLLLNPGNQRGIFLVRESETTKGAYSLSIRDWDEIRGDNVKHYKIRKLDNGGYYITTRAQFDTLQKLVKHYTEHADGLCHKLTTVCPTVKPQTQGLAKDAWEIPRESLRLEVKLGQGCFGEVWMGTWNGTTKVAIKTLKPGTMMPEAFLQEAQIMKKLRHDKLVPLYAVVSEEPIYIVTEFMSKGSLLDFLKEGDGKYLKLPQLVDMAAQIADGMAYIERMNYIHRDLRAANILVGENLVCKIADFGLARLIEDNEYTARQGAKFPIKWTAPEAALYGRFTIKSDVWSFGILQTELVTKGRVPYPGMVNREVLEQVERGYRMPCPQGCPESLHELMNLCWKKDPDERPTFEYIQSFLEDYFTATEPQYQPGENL
Settings: compound 10.0 µM
Would you mind telling me the reported per cent of control of each entry?

Check out these entries, answers already filled in.
> print(dat)
                               smiles.entry                   assay.target  reported
1  COC(=O)Nc1ccc(-c2nc(N3CCOCC3)c3cnn(C4CCN(C(=O)OC)CC4)c3n2)cc1  YES1 (human) (UniProt P07947)      113%
2  COc1ccc(-c2ccc3c(N4CCOCC4)nc(N4C[C@@H](C)O[C@@H](C)C4)nc3n2)cc1CO  YES1 (human) (UniProt P07947)       90%

Respectfully, I request per cent of control for each entry included below.
1. CC(C)n1nc(-c2cc3cc(O)ccc3[nH]2)c2c(N)ncnc21
2. CCC(=O)N1CCN(c2ccc(-n3c(=O)ccc4cnc5ccc(-c6cnc7ccccc7c6)cc5c43)cc2C(F)(F)F)CC1

-- reply
1: -8%; 2: 78%

---

Would you mind telling me the reported per cent of control of each entry?
Target: MAPK13 (human)
Details: compound 1.0 µM
Answers are plain numbers, in %.

> print(dat)
                               smiles.entry  reported
1  CCC(=O)N1CCN(c2ccc(-n3c(=O)ccc4cnc5ccc(-c6cnc7ccccc7c6)cc5c43)cc2C(F)(F)F)CC1       106
2  COc1ccc(-c2ccc3c(N4CCOCC4)nc(N4C[C@@H](C)O[C@@H](C)C4)nc3n2)cc1CO        72
3  CC(C)n1nc(-c2cc3cc(O)ccc3[nH]2)c2c(N)ncnc21        97

Query molecule follows.
-- ask Quick one: per cent of control of `COC(=O)Nc1ccc(-c2nc(N3CCOCC3)c3cnn(C4CCN(C(=O)OC)CC4)c3n2)cc1` ?
-- reply 14

---

Target: NEK4 (human)
Experiment: KINOMEscan competition binding
Conditions: compound 10.0 µM
ASSAY ENDPOINT: kinase still bound, per cent of control (%)
One number for each entry, in %.

> print(dat)
                               smiles.entry  assay.target                           assay.endpoint  reported
1  CCC(=O)N1CCN(c2ccc(-n3c(=O)ccc4cnc5ccc(-c6cnc7ccccc7c6)cc5c43)cc2C(F)(F)F)CC1  NEK4 (human)  kinase still bound, per cent of control        86

Respectfully, I request kinase still bound, per cent of control for each entry included below.
1. CC(C)n1nc(-c2cc3cc(O)ccc3[nH]2)c2c(N)ncnc21
2. COC(=O)Nc1ccc(-c2nc(N3CCOCC3)c3cnn(C4CCN(C(=O)OC)CC4)c3n2)cc1
3. COc1ccc(-c2ccc3c(N4CCOCC4)nc(N4C[C@@H](C)O[C@@H](C)C4)nc3n2)cc1CO

-- reply
1. 90
2. 90
3. 76

---

Molecular target: CDC42BPB (human) (UniProt Q9Y5S2)
Sequence (Q9Y5S2 whole entry, looked up): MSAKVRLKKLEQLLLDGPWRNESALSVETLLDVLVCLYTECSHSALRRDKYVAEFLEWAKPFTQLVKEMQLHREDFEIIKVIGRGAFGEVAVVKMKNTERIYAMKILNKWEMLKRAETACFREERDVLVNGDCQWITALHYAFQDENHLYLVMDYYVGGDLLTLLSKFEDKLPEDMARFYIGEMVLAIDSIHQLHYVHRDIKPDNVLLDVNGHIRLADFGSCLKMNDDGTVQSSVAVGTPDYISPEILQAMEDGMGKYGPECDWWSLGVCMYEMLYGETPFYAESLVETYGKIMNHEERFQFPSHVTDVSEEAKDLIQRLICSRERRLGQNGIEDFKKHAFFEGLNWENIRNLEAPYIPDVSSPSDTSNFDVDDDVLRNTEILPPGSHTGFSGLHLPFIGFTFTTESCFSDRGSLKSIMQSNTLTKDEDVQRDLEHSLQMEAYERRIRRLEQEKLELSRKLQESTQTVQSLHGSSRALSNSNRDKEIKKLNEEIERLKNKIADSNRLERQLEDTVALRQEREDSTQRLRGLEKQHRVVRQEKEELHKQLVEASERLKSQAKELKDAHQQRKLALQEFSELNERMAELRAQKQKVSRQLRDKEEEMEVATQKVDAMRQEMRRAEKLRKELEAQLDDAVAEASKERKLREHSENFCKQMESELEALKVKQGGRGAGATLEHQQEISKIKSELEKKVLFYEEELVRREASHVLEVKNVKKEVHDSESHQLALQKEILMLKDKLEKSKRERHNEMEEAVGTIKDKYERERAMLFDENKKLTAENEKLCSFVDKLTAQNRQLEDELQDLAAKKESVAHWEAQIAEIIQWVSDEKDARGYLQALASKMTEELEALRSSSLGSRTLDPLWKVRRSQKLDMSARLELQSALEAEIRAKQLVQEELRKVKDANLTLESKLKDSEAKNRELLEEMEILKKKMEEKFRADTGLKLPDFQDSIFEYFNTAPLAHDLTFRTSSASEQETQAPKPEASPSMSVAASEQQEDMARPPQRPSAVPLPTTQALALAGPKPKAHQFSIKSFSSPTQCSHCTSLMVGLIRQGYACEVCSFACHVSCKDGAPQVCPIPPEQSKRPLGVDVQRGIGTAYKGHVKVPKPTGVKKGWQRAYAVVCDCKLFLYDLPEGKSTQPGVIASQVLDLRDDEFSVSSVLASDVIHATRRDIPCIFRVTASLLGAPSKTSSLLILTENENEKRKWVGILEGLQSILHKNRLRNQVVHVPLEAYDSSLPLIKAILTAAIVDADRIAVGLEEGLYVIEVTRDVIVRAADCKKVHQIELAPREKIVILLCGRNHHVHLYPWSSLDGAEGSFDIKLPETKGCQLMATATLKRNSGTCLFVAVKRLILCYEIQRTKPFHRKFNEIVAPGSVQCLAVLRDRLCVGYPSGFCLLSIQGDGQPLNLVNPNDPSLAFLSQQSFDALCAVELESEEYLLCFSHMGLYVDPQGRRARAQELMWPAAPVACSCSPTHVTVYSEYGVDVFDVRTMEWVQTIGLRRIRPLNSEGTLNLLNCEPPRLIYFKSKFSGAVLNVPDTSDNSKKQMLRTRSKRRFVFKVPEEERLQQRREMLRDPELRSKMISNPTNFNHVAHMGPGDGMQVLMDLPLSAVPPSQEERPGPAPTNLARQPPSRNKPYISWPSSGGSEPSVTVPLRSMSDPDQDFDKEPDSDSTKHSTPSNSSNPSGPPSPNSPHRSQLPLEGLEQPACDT
Test: KINOMEscan competition binding
Details: compound 10.0 µM
Would you mind telling me the reported kinase still bound, per cent of control of each entry?
Answers are plain numbers, in %.

> print(dat)
                               smiles.entry  reported
1  CCC(=O)N1CCN(c2ccc(-n3c(=O)ccc4cnc5ccc(-c6cnc7ccccc7c6)cc5c43)cc2C(F)(F)F)CC1       3.4

Respectfully, I request kinase still bound, per cent of control for each entry included below.
1. COC(=O)Nc1ccc(-c2nc(N3CCOCC3)c3cnn(C4CCN(C(=O)OC)CC4)c3n2)cc1
2. CC(C)n1nc(-c2cc3cc(O)ccc3[nH]2)c2c(N)ncnc21
3. COc1ccc(-c2ccc3c(N4CCOCC4)nc(N4C[C@@H](C)O[C@@H](C)C4)nc3n2)cc1CO

-- reply
1: 96; 2: 71; 3: 81

---

Biological target: IKBKB (human) (UniProt O14920)
Sequence (O14920 whole entry, looked up): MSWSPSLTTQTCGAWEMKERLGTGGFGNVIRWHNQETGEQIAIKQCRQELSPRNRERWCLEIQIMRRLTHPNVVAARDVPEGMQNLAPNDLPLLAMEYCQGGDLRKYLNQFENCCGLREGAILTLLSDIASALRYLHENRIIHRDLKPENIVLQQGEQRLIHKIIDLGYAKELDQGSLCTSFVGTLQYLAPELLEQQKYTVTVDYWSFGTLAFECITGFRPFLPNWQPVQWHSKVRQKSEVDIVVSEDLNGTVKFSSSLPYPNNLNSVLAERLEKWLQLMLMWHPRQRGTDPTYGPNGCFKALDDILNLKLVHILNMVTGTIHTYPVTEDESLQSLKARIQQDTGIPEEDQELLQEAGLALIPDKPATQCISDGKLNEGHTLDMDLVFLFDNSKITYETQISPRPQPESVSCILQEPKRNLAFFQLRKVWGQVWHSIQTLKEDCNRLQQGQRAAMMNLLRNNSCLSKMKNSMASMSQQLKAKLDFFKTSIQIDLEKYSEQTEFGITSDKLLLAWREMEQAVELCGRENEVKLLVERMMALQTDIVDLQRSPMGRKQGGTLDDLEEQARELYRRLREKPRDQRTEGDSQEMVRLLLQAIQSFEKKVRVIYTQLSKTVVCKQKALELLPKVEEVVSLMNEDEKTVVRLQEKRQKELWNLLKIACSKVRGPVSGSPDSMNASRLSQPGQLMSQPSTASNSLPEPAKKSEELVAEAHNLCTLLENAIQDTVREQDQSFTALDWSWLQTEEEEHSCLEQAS
Conditions: compound 10.0 µM
ASSAY ENDPOINT: per cent of control
Quote the value and follow it with the unit of measurement.

> print(dat)
                               smiles.entry  reported
1  CC(C)n1nc(-c2cc3cc(O)ccc3[nH]2)c2c(N)ncnc21       84%

Respectfully, I request per cent of control for each entry included below.
1. COC(=O)Nc1ccc(-c2nc(N3CCOCC3)c3cnn(C4CCN(C(=O)OC)CC4)c3n2)cc1
2. CCC(=O)N1CCN(c2ccc(-n3c(=O)ccc4cnc5ccc(-c6cnc7ccccc7c6)cc5c43)cc2C(F)(F)F)CC1

-- reply
["100%", "63%"]

-- ask Query the reported per cent of control for IKBKB (human) (UniProt O14920); item: `COc1ccc(-c2ccc3c(N4CCOCC4)nc(N4C[C@@H](C)O[C@@H](C)C4)nc3n2)cc1CO`
-- reply 89%
